For each entry below, report its pIC50 value.
Note on units: pIC50 is unitless, being -log10 of a concentration expressed in mol/L.

[ask] Param readout = pIC50; param system = TrkC (Homo sapiens); param query = CC1Cc2ncc(F)cc2[C@H]2CCCN2c2ccn3ncc(c3n2)C(=O)NN1C (single isomer, unassigned) [Example 7a] ; response: value
Sequence (Q16288 32-839, species assumed): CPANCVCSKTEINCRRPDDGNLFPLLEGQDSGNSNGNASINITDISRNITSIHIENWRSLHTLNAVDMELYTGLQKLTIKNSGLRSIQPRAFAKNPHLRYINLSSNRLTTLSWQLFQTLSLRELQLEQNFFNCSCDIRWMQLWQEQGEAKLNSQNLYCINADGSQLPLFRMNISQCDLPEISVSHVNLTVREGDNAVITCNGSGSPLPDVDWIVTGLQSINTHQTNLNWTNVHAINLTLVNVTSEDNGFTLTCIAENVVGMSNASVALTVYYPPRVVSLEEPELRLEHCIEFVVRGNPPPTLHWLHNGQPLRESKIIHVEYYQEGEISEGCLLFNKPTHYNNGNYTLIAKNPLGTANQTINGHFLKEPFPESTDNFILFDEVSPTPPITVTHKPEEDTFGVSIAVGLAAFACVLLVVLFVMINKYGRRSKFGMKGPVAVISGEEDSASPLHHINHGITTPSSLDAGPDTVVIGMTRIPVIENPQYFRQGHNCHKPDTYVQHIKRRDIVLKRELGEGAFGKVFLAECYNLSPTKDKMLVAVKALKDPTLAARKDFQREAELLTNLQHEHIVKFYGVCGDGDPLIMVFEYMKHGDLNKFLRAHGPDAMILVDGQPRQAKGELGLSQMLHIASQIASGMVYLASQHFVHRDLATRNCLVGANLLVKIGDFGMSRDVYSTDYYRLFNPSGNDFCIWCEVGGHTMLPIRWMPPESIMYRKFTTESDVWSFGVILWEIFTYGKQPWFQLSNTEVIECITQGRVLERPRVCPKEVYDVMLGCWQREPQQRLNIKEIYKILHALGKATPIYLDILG
[reply] 9.24

[ask] Reported pIC50 for TrkC (Homo sapiens), given `O=C1NN(C2CC2)CCc2ncc(F)cc2[C@H]2CCCN2c2ccn3ncc1c3n2` ?
[reply] 9.60

[ask] Could you share what pIC50 was measured for CCN1NC(=O)c2cnn3ccc(nc23)N2CCC[C@@H]2c2cc(F)cnc2CC1C (single isomer, unassigned) [Example 8b] , tested on TrkC (Homo sapiens)?
[reply] 9.47

[ask] Please state recorded pIC50 (tested on TrkC (Homo sapiens)) of CCN1NC(=O)c2cnn3ccc(nc23)N2CCC[C@@H]2c2cc(F)cnc2CC1C (single isomer, unassigned) [Example 8a]
[reply] 9.12

[ask] Query the reported pIC50 for TrkC (Homo sapiens); item: CC1Cc2ncc(F)cc2[C@H]2CCCN2c2ccn3ncc(c3n2)C(=O)NN1C (single isomer, unassigned) [Example 7b]
[reply] 9.72

[ask] // fetch TrkC (Homo sapiens) pIC50 for `CC(C)N1CCc2ncc(F)cc2[C@H]2CCCN2c2ccn3ncc(c3n2)C(=O)N1`
[reply] 9.54

[ask] Form field - read-out: pIC50; system: TrkC (Homo sapiens); submitted item: CC1Cc2ncc(F)cc2[C@H]2CCCN2c2ccn3ncc(c3n2)C(=O)NN1C1CC1 (single isomer, unassigned)
[reply] 9.34

---

Test: Metabolic stability in human liver microsomes
Format: in vitro ADME
Conditions: human, liver microsomes, pH 7.4
quantity measured: half-life at 1 μmol/L

[ask] Need half-life at 1 μmol/L of `CN1CCc2ncc(F)cc2[C@H]2CCCN2c2ccn3ncc(c3n2)C(=O)N1` , thanks.
[reply] 3.62 h

[ask] Recorded half-life at 1 μmol/L for O=C(Nc1cnn2ccc(N3CCC[C@@H]3c3cc(F)ccc3F)nc12)N1CC[C@H](O)C1 [LOXO-101, reference compound] , please?
[reply] 0.987 h

[ask] I have this compound here, C[C@@H]1CCc2ncc(F)cc2[C@H]2CCCN2c2ccn3ncc(c3n2)C(=O)N1 [LOXO-195, reference compound] , and I need its recorded half-life at 1 μmol/L.
[reply] 0.255 h

[ask] Give the measured half-life at 1 μmol/L of `O=C1NN(C2CC2)CCc2ncc(F)cc2[C@H]2CCCN2c2ccn3ncc1c3n2` .
[reply] 1.11 h

---

Provide the reported IC50 of each item.
Give just the number in nM; leave the unit off.

[ask] Any idea what IC50 came out for CC(C)CN1CCc2ncc(F)cc2[C@H]2CCCN2c2ccn3ncc(c3n2)C(=O)N1 [Example 9] on TrkB (Homo sapiens)?
[reply] 2.16

[ask] Hi! What's the reported IC50 for CC1Cc2ncc(F)cc2[C@H]2CCCN2c2ccn3ncc(c3n2)C(=O)NN1C (single isomer, unassigned) [Example 7a] on TrkB (Homo sapiens)?
[reply] 4.04

[ask] Request body: readout IC50, system TrkB (Homo sapiens), query CC1Cc2ncc(F)cc2[C@H]2CCCN2c2ccn3ncc(c3n2)C(=O)NN1C (single isomer, unassigned) [Example 7b] . Return the value.
[reply] 0.71
